# Assayed target: Albumin (Bos taurus) (UniProt P02769)
# Sequence (P02769 whole entry, looked up): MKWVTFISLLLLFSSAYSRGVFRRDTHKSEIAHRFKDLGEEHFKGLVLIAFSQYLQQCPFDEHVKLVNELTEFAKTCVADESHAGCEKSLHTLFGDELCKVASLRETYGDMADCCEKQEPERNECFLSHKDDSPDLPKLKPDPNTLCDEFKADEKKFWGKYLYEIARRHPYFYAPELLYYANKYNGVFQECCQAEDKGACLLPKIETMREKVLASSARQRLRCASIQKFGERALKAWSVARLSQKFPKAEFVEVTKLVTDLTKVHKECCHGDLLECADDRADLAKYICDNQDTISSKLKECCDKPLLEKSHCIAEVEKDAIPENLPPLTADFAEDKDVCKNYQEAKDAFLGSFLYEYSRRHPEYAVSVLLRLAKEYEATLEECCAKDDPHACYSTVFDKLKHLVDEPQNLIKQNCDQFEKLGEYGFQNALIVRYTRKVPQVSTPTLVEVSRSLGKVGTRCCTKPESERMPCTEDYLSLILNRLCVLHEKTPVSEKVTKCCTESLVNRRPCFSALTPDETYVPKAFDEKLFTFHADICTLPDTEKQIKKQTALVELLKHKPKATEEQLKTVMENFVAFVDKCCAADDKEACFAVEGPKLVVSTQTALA
# Procedure details: bovine serum albumin binders on microarray, profiling panel, artefact control for SMM control protein annotation, biochemical, small-molecule microarray, Alexa647 label, 635/667 nm fluorescence (AID 1118);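 also: score merges 667 nm emission intensity and signal-to-noise per printed compound spot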
# Condition info: BSA-A647 binding, fluorescence 635 nm, higher = more signal
Hi there, I'd appreciate the recorded composite z-score for every entry that follows.

Below are worked cases with known answers.
CO[C@H]1O[C@H](CO)[C@@H](OC(=O)Nc2ccccc2)[C@@H]2OC(=O)[C@@H](Cc3ccccc3)C/C=C/C[C@H](Cc3ccccc3)C(=O)O[C@@H]12 : 0.0558
CCCCN1CC=CC23O[C@@H]4/C=C\CCCOC(=O)C4[C@H]2C(=O)N(CCCCCCO)[C@@H]3C1=O (some centres undefined) : -0.768
O=C1c2ccccc2[C@@]2(Cc3ccccc3N(CC(F)(F)F)C2=O)[C@H](c2ccc(CO)cc2)N1Cc1ccccc1 : -0.507
COC(=O)[C@]1(Cc2ccccc2CN=[N+]=[N-])N=C(c2ccc(OCCCO)cc2)O[C@@H]1c1ccccc1N=[N+]=[N-] : -0.427
C=CCOC(=O)[C@@H]1[C@H]2C(=O)O[C@H](c3ccccc3)[C@H](c3ccccc3)N2[C@H](c2ccc(OCCOC(=O)[C@@H]3C[C@@H]4C(=O)N[C@@H](CC(C)C)C(=O)N4[C@@H]3c3ccc(O)cc3)cc2)[C@@]12C(=O)Nc1ccc(I)cc12 : -0.766

Value sought for every listed compound: composite z-score.
1. C=CCNC(=O)[C@H]1[C@@H]2C(=O)O[C@@H](c3ccccc3)[C@@H](c3ccccc3)N2[C@@H](c2ccc(OCCO)cc2)[C@]12C(=O)Nc1ccc(C#Cc3ccc(OC)cc3)cc12
2. CC[C@@H](O[Si](C#C[Si](C(C)C)(C(C)C)C(C)C)(C(C)C)C(C)C)c1cn(Cc2cccc(Cl)c2)nn1

1: 0.404; 2: 0.0711

Value sought for every listed compound: composite z-score.
1. COC(=O)C1=CC(CCCO)=CC(c2ccc(CN3CCCC3)cc2)N(C)C=C1C(=O)OC (centres undefined)
2. CN(C)C(=O)[C@]1(CCS(=O)(=O)c2ccccc2)N=C(c2ccc(OCCCO)cc2)O[C@@H]1c1ccccc1CN=[N+]=[N-]
3. O=C1NC(=O)C2C1C=CC(C(O)c1ccc(F)cc1)N2Nc1ccc(Cl)cc1Cl (centres undefined)
4. C=C[C@@H](CO)NS(=O)(=O)c1ccc(Br)cc1
5. COC(=O)C[C@H]1O[C@]2(C(=O)N(C)c3ccccc32)[C@@H](C)[C@@H]1[Si](C)(C)c1ccccc1
6. CCOC(=O)C[C@H]1[C@H](OC(=O)c2ccc(-c3ccccc3)cc2)[C@@H](NC(=O)C2CCCCC2)c2cc(OCCCO)ccc2N1C(=O)Cc1ccc(OC)cc1
7. C=C(CCCC)/C(=C/C[C@@H](OC(C)=O)c1cccc(OCCO)c1)c1cc(C(=O)OC)ccc1OC

1. 0.935
2. 0.955
3. 0.369
4. 0.225
5. -0.0967
6. 0.561
7. 0.119

###

# System: Sonic hedgehog protein (Shh)
# Procedure details: small-molecule binders of Shh protein, primary screen, biochemical, small-molecule microarray, 635/667 nm fluorescence (AID 1151);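 also: Shh protein binding to compounds spotted on small-molecule microarray slides; score combines spot fluorescence intensity with signal-to-noise across triplicate slides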
# Condition info: small-molecule microarray binding, 635 nm fluorescence; higher = more signal
Observed property: composite z-score
Answers are plain numbers.

Below are worked cases with known answers.
CC(C)N1C(=O)[C@@]2(Cc3ccccc31)c1ccccc1C(=O)N(Cc1ccccc1)[C@H]2c1ccc(CO)cc1 : 0.462
O=C/C=C/c1ccc(-c2ccccc2)cc1 : 0.083

Value sought for every listed compound: composite z-score.
1. CCOC(=O)C[C@H]1[C@H](OC(=O)c2ccc(-c3ccccc3)cc2)[C@@H](NC(=O)c2ccc(-c3ccccc3)cc2)c2cc(OCCCO)ccc2N1C(=O)c1ccccc1
2. O=C1O[C@H](c2ccccc2)[C@H](c2ccccc2)N2[C@H]1[C@@H](C(=O)O)[C@]1(C(=O)Nc3ccccc31)[C@H]2c1ccc(OCCO)cc1
3. [N-]=[N+]=NCc1ccccc1[C@H]1OC(c2ccc(OCCCO)cc2)=N[C@@]1(CCS(=O)(=O)c1ccccc1)C(=O)O
4. C=C(COC)/C(=C/C[C@@H](OC(C)=O)c1cccc(OCCO)c1)c1cnc2ccccc2c1

1. 0.921
2. 0.98
3. -1.37
4. 1.83

Value sought for every listed compound: composite z-score.
1. COC(=O)[C@@]1(Cc2ccccc2)[C@H]2c3cc(C(=O)N(C)C)n(CCF)c3C[C@H]2CN1C(=O)c1ccccc1
2. CC(C)(C)OC(=O)CC[C@@]1(C(=O)N2CCOCC2)N=C(c2ccc(OCCCO)cc2)O[C@@H]1c1ccccc1CN=[N+]=[N-]
3. CCCCCCc1nc(Cc2cc(OC)c(OC)c(OC)c2)c(C)c2c1[Si](C(C)C)(C(C)C)OC2
4. CCCCN1CC=CC23O[C@@H]4C=CCCOC(=O)C4[C@H]2C(=O)N(CCO)[C@@H]3C1=O (stereo partly drawn)
5. C[C@]12C(=O)N(CCO)[C@@H]3C(=O)N(c4ccc(Cl)cc4)CC=CC31O[C@@H]1/C=C\CCCOC(=O)C12 (stereo partly drawn)

1: -0.187; 2: -0.33; 3: 0.372; 4: 1.71; 5: 1.18

Value sought for every listed compound: composite z-score.
1. Cc1ccc(S(=O)(=O)N2[C@@H](c3ccccc3)C(C(=O)O)=C[C@H]2C(C)(C)C)cc1
2. O=C1C2C=CC(C(O)C3CC=CCC3)N(Nc3ccc([N+](=O)[O-])cc3)C2C(=O)N1c1ccccc1 (stereo not drawn)
3. CC1CC/C=C\[C@H]2OC34C=CCN(C(C)C)C(=O)[C@H]3N(C(C)CO)C(=O)[C@@H]4C2C(=O)O1 (stereo partly drawn)
4. COCCOC(=O)N1C(=O)[C@@]2(c3cc(C#CC4=CCCCC4)ccc31)[C@H](c1ccc(O)cc1)N1[C@H](c3ccccc3)[C@H](c3ccccc3)OC(=O)[C@H]1[C@@H]2C(=O)N1CCc2cc(OC)c(OC)cc2C1
5. Cc1ccc(S[C@]2(C(=O)NC3CC3)CC(=O)N(C3Cc4ccccc4C3)[C@@H]2c2ccc(CO)cc2I)cc1
6. COC(=O)[C@@]1(Cc2ccc(F)cc2)[C@H]2c3cc(C(=O)N4CCCC4)n(C[C@H](O)CO)c3C[C@H]2CN1C(=O)c1ccccc1
7. CO[C@H]1O[C@H](CO)[C@@H](OC(=O)CCc2ccccc2)[C@@H]2OC(=O)[C@@H](Cc3ccc4ccccc4c3)C/C=C/C[C@H](Cc3ccc4ccccc4c3)C(=O)O[C@@H]12

[0.719, 0.606, 1.09, 0.514, 0.209, -0.545, -0.657]
